Listed next: entries and their corresponding kon.
targetEntity: T1, cSNK:BSA conjugate (bovine, head-to-tail cyclized; conjugated to BSA carrier)
T1 construct: also called BSA-cSNK
T1 sequence (P02769 25-607 limits assumed): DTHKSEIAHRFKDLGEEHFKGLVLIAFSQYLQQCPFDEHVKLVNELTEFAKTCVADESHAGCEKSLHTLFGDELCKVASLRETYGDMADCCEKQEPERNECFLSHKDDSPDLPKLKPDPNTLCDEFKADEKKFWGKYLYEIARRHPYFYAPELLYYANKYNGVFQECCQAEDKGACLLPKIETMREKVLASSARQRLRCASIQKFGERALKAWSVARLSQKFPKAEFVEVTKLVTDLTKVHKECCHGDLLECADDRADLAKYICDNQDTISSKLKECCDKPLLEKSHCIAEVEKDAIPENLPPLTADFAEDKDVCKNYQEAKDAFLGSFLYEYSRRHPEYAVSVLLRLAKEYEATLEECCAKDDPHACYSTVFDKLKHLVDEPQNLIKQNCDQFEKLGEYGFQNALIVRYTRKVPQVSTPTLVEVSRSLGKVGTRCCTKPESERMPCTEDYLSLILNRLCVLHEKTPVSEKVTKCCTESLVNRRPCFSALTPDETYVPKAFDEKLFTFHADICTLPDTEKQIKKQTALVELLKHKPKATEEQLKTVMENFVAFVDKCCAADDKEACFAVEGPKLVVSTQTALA
assayOverview: BLI 2:1 fit, site 1; 100 nM row
// units = M⁻¹ s⁻¹; emit number, no label

{"binder": "hu5E3-IgG4 (antibody, V domains shown, human IgG4/kappa; also called humanized 5E3 IgG4) VH: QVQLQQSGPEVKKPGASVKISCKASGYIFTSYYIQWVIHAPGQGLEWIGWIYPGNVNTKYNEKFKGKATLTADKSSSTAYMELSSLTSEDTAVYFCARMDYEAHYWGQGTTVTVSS VL: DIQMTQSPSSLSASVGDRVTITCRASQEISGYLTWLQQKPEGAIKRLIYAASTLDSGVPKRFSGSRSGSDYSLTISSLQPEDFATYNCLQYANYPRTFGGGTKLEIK", "measureUnit": "M⁻¹ s⁻¹", "kon": 868000}
{"binder": "rehu5E3-IgG4 (antibody, V domains shown, human IgG4/kappa; also called IgG4 rehu version) VH: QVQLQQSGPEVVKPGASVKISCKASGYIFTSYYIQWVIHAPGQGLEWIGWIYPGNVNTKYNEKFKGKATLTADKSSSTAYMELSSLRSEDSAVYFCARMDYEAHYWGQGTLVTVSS VL: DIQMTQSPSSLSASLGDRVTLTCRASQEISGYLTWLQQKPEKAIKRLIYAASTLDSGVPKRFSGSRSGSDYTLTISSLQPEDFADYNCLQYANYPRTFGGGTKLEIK", "measureUnit": "M⁻¹ s⁻¹", "kon": 692000}

Attention now turns to another entry.
input: Tell me measured kon for hu5E3-IgG2 (antibody, V domains shown, human IgG2/kappa; also called humanized 5E3 IgG2) VH: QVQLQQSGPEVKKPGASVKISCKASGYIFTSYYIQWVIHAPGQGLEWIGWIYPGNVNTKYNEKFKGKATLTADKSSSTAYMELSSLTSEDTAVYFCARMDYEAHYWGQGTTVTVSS VL: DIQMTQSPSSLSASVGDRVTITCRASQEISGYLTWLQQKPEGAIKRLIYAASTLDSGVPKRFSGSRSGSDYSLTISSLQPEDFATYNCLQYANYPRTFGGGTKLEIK please.
output: 644000
